Let's look at some compounds and their measured activation.
- measurementTarget: Peroxisome proliferator-activated receptor gamma (Homo sapiens)
- assayName: enhancers of SRC-1 binding to PPARgamma – biochemical, primary screen (AID 631);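 further: 0% = DMSO and 100% = reference agonist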
- settings: PPARgamma-SRC-1 coactivator recruitment biochemical assay; at 8 µM; stronger effect = higher value
Hit rate of the full screen: of about 200,000 compounds, about 810 (0.41%) were called active. For the sample, actives were picked, then their nearest neighbours and some compounds at random.
quantityKind: activation (%)

> print(dat)
                                        mol  resultnumber
1  O=C(Oc1ccc([N+](=O)[O-])cc1)c1ccc(Cl)c(S(=O)(=O)N2CCCCC2)c1          -9.6
2         CCCn1c(=S)[nH]c2ccc(C(F)(F)F)cc21           7.7
3       CSc1c(SCc2ccccc2)cnn(Cc2ccccc2)c1=O            24
4      c1csc(-c2nnc(COc3ccc4c(c3)OCO4)o2)c1           0.1

* * *

- measurementTarget: Peroxisome proliferator-activated receptor gamma (Homo sapiens) (UniProt P37231)
- Sequence (P37231 whole entry, looked up): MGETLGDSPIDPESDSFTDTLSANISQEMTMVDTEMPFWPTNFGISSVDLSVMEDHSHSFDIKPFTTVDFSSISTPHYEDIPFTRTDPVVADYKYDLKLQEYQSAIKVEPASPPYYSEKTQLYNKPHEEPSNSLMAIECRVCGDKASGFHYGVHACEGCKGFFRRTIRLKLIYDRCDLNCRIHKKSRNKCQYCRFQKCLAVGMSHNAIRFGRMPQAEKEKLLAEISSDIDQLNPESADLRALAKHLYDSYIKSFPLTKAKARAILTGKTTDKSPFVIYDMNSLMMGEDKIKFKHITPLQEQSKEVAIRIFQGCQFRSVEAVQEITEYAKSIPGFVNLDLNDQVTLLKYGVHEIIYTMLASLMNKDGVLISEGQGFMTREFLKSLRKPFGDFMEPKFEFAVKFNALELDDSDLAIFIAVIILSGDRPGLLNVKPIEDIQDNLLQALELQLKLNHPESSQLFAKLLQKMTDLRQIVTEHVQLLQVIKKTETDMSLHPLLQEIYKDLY
- assayName: enhancers of SRC-1 binding to PPARgamma – biochemical, primary screen (AID 631);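 further: 0% = DMSO and 100% = reference agonist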
- settings: PPARgamma-SRC-1 coactivator recruitment biochemical assay; at 8 µM
Among all 200,000 compounds or so, about 810 (0.41%) were called active. Rule as the data show it: active = activation above about 19%; inactive = the rest. The sample holds actives, similar compounds and a random draw of the others, so the mix is not that of the screen.
Possible outcomes: active, inactive

> print(dat)
                                        mol  category
1      CCOc1cccc(C(=O)Nc2nnc(-c3cccs3)s2)c1    active
2               CCOc1cccc(C(=O)Nc2cccnc2)c1  inactive
3           CCOC(=O)Cc1cc(=O)[nH]c(=O)[nH]1  inactive
4  COc1cc(C(=O)NCc2nnc(SCC(=O)Nc3nc4ccc(C)cc4s3)o2)cc(OC)c1OC  inactive

* * *

- measurementTarget: Peroxisome proliferator-activated receptor gamma (Homo sapiens)
- assayName: enhancers of SRC-1 binding to PPARgamma – biochemical, primary screen (AID 631);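 further: 0% = DMSO and 100% = reference agonist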
- settings: PPARgamma-SRC-1 coactivator recruitment biochemical assay; at 8 µM; stronger effect = higher value
Out of some 200,000 compounds screened, about 810 (0.41%) were called active. The sample as a whole holds a higher share of actives than the screen did.
# activation per record follows
quantityKind: activation

> print(dat)
                                    compound            result
 1  N#C/C(C(=O)N1CCOCC1)=C1/SC(Cc2ccc(F)cc2)C(=O)N1c1ccccc1 (stereo unspecified)  -4.4% (inactive)
 2   CC(C)N(Cc1ccccc1)C(=S)Nc1ccc(OC(F)F)cc1  -4.1% (inactive)
 3  CC(=O)Oc1ccc2c(C)c(CC(C)O)c(=O)oc2c1 (stereo unspecified)  -0.8% (inactive)
 4             COc1ccc2c(Cl)c(-c3nnco3)sc2c1    24.2% (active)
 5       COc1ccc2c(c1)CCc1cn3ncc(C#N)c3nc1-2   2.5% (inactive)
 6  Cc1c(Cc2ccccc2)c(=O)oc2cc(OCC(N)=O)ccc12  -0.5% (inactive)
 7  COc1cc(OC)c(C2=NOC(C(=O)Nc3c(C)n(C)n(-c4ccccc4)c3=O)C2)cc1Cl (stereo unspecified)   3.3% (inactive)
 8  CC(C)NC(=O)CSc1ccccc1C(=O)NCc1ccc2c(c1)OCO2  -1.4% (inactive)
 9          COc1ccc(Cl)cc1C(=O)NCc1cn(C)nc1C   0.6% (inactive)
10  Cc1ccccc1-c1n[nH]c(=S)n1/N=C/c1ccc(-c2ccccc2Br)o1    32.5% (active)
11               CCCN1CNC(=S)N(CCc2ccccc2)C1     4% (inactive)
12  CCn1c(=O)cc(SCC(=O)NCCC2=CCCCC2)c2ccccc21  13.8% (inactive)
13  COc1ccc(NS(=O)(=O)c2cc(NC(=O)CC(=O)c3ccc([N+](=O)[O-])cc3)ccc2C)cc1   2.2% (inactive)
14  COc1ccc(-c2ccc(CCC(=O)O)n2NC(=O)c2ccc(C(C)(C)C)cc2)cc1   4.4% (inactive)
15      CSc1nc2nc(-c3cccc(C(F)(F)F)c3)ccn2n1   3.3% (inactive)
16  Cc1ccc2nc(-c3cccc(Br)c3)cc(C(=O)Nn3cnnc3)c2c1  -0.9% (inactive)
17          CCCNC(=O)c1c(Cl)cnn1-c1ccc(C)cc1  -0.9% (inactive)
18             O=C(O)c1ccn(COc2ccc(Br)cc2)n1   7.4% (inactive)
19        Cc1ccc(NC(=O)CSCC(=O)NC2CCCCC2)cc1   6.7% (inactive)
20  COc1ccc(-n2c(C)cc(C(=O)COC(=O)c3cc(OC)c(OC)cc3NC(=O)c3cccs3)c2C)cc1   8.5% (inactive)
21  COc1ccc(OC)c(-c2csc(NC(=O)C3=NNC(=O)CC3)n2)c1  -3.7% (inactive)
22  Cc1ccc(-c2cc(C(=O)NCc3cn(C)nc3C)c3cc(Br)ccc3n2)cc1    22.7% (active)
23  O=C(C1CCN(S(=O)(=O)c2cccs2)CC1)N1CCCCCC1  -1.2% (inactive)
24  Cc1cccc(NC(=O)c2cc([N+](=O)[O-])ccc2N2CCN(C)CC2)c1  10.3% (inactive)
25             Cc1cccc(NC(=S)N2CCC(O)CC2)c1C   1.3% (inactive)
26  Cc1cccc(-c2ncc(CN3CCC(CO)(CCCc4ccccc4)CC3)cn2)c1   5.8% (inactive)
